- assay overview: protein stability index of a GFP-peptide fusion (GPS, HEK-293T) (PSI 1-6); higher = more stable;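 also: 24-mer peptide tiles fused after GFP, lentivirally expressed, FACS-sorted into six equal bins by GFP/DsRed ratio, decoded by Illumina sequencing, PSI is the read-weighted mean bin number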
- condition label: treatment: MLN4924 1 uM, 8 h; c terminus: a fixed tail appended
measured quantity: protein stability index

Some entries whose results are on file:
# sequence record, protein stability index
measured = [
    ("TIPATLLVDHVGSKTFLCIGSSVM [SLC2A12]", 2.34),
    ("DLKPTGEIPKQVKVKKLKNLKTLD [DENND6A]", 4.24),
    ("VLLHGPPGTGKTSLCKALAQKLTI [TRIP13]", 2.31),
    ("AWKHGNIHLSAPCIYSEVMEALKL [PCMTD1]", 2.14),
    ("VHKTKEQFGQDGPISVHCSAGVGR [PTPRD]", 4.15),
]

Below are 2 sequences. Give each one its protein stability index.
1. GFTTATEFHQRRSEIIQITTGSKE [RAD51]
2. DGSDFQHRERVAMHYQMSVTLKYE [JAGN1]

A)
1: 4.35; 2: 2.87

----------
- assay overview: protein stability index of a GFP-peptide fusion (GPS, HEK-293T) (PSI 1-6); higher = more stable
- condition label: treatment: MLN4924 1 uM, 8 h; c terminus: a fixed tail appended
measured quantity: protein stability index

Some entries whose results are on file:
# sequence record, measured quantity, readout value
records = [
    ("GNPDPEITWFKDFLPVDTSNNNGR [PTPRD]", "protein stability index", 4.76),
    ("AAQEGEDEGASAGQGPKPEADSQE [GAGE1]", "protein stability index", 5.64),
]

Below are 7 sequences. Give each one its protein stability index.
1. LGISPSTCSFNPGVIVANMTEWKH [GLT8D2]
2. KYMPHLCQDSSGEVSCQCQLHPPR
3. RGGRQKYKRRIDAENSPYLNPQLV [ESRRG]
4. EAFWAEWKDLTLSTRPEEGCSLHE [TCAP]
5. QGVEGDHCVTSDPATSPLVLAIPR [TRIM35]
6. AVSCVFLAFVIVLLAHRLRRWHKS [PCDHGA10]
7. LLESLNQQRLQGQLCDVSIRVQGR [ZBTB22]

A)
1: 2.59; 2: 3.6; 3: 3.93; 4: 4; 5: 4.66; 6: 1.92; 7: 2.67

Below are 4 sequences. Give each one its protein stability index.
1. KSFSMANGLNARMMHGGSYSLTTS [RAB40B]
2. EAGFHTVEAVAYAPKKELINIKGI [RAD51]
3. HGRIPDPDDFVPPVPPPSYFATFY [FAM189A2]
4. VSNTRLIAAATSVLKTRFSYAFPK [CCNC]

A)
3.18
3.19
2.23
1.96

----------
Kindly supply the reported protein stability index values for the records listed here.
- assay overview: protein stability index of a GFP-peptide fusion (GPS, HEK-293T) (PSI 1-6); higher = more stable
- condition label: treatment: MLN4924 1 uM, 8 h; c terminus: a fixed tail appended

# sequence record, protein stability index
records = [
    ("HGNEVLGRELLLLLVQFVCQEYLA [CPXM2]", 2.98),
]

Below are 2 sequences. Give each one its protein stability index.
1. VIKDKDDSVDAQNICHVWHMNVEA [RNF180]
2. VNRRISIVGFGLYGSIHGPTDYQV [BTBD1]

A)
[3.66, 2.45]

Below are 5 sequences. Give each one its protein stability index.
1. THSSLSQELQARLQTVTREKEELL [CCDC89]
2. VDSKPELQRVLEHRRRNQLIKKKK [FAM107A]
3. EEKSFWEMEKSFREEEKTFWKKYR [CCDC70]
4. RKKSADVLALADEAGYYFFNGNYK [ADAMTSL2]
5. FLRGPSGPRFGPRNDKIKHVQNQV [VAMP4]

A)
1. 4.68
2. 4.61
3. 4.23
4. 3.05
5. 3.39

Below are 4 sequences. Give each one its protein stability index.
1. TAVGAILAGGLCVGIYATNSAEAC [ACSBG2]
2. GPADCSPPHPAPAPQHPAASALRT [DYRK1B]
3. LPGPAFESYESMELACPAERSGHV [KLHDC2]
4. VPSLNAALMHTLQRHRDILQVIYW [GOSR1]

A)
2.84
4.92
4.45
2.4

Below are 3 sequences. Give each one its protein stability index.
1. LRETKRKYESVLQLGRALTAHLYS [ARFIP2]
2. DGIRGKVGHARGLHAWQINWPARQ [SPSB4]
3. SLFSYGLRESIASYLSLTSEDNTS [SLA]

A)
2.15
2.67
2.61

Data provenance: the supplement of paper PMC10567573
